- Test description: Pharmacokinetic study in vivo
- Design: species or system BALB/c mice
- Setup conditions: male, BALB/c, mouse, plasma, iv; mice, 2 mg/kg
Attribute measured: Cmax (ng/mL)
All answers are understood in ng/mL, so give the number only.

Recorded Cmax for CN1CCN(Cc2cccc(C(=O)NC3CCC(=O)NC3=O)c2F)C(=O)C1 (stereo not shown) , please?
3690

----------
- System: MV-4-11
- Test description: Cell viability (CCK-8) assay
- Assay type: cell-based
- Setup conditions: Homo sapiens, MV4-11, 96 h, 96 h, CCK-8
Attribute measured: IC50 (µM)
All answers are understood in µM, so give the number only.

[
  {
    "Molecule": "CC1CCN(Cc2cccc(C(=O)NC3CCC(=O)NC3=O)c2)CC1 (stereo not drawn)",
    "Numeric result": 2.03
  },
  {
    "Molecule": "O=C1CCC(NC(=O)c2cccc(CNCC3CC3)c2)C(=O)N1 (stereo not drawn)",
    "Numeric result": 8.3
  },
  {
    "Molecule": "CC1CCCC(C)N1C(=O)c1cccc(C(=O)NC2CCC(=O)NC2=O)c1 (stereo not drawn)",
    "Numeric result": 9.26
  },
  {
    "Molecule": "O=C1CCC(NC(=O)c2cccc(CN3CCCCC3=O)n2)C(=O)N1 (stereo not drawn)",
    "Numeric result": 5.65
  },
  {
    "Molecule": "O=C1CCC(NC(=O)c2cccc(CN3CCSCC3)c2F)C(=O)N1 (stereo not drawn)",
    "Numeric result": 2.43
  }
]

Continue with the next molecule.
Recorded IC50 for O=C1CCC(NC(=O)c2cccc(CNC3CC3)c2)C(=O)N1 (stereo not drawn) , please?
7.34

----------
- Test system: RPMI-8226
- Test description: Cell viability (CCK-8) assay
- Format: cell-based
- Setup conditions: Homo sapiens, RPMI-8226, 96 h, read-out: IC50 (μM) RPMI-8226
Attribute measured: IC50

Recorded IC50 for Nc1cccc2c1C(=O)N(C1CCC(=O)NC1=O)C2=O (stereo not shown) [Pomalidomide, reference compound] , please?
5.21 µM

----------
- System: U2932
- Test description: Cell viability (CCK-8) assay
- Type: cell-based
- Setup conditions: Homo sapiens, U2932, 96 h, read-out: IC50 (μM) U2932
Attribute measured: IC50 (µM)
All answers are understood in µM, so give the number only.

Recorded IC50 for Nc1cccc2c1C(=O)N(C1CCC(=O)NC1=O)C2=O (stereo not shown) [Pomalidomide, reference compound] , please?
13.7

----------
- System: Skm-1
- Test description: Cell viability (CCK-8) assay
- Format: cell-based
- Setup conditions: Homo sapiens, SKM-1, 96 h, read-out: IC50 (μM) Skm-1
Attribute measured: IC50
Answer with the value and then the unit.

Recorded IC50 for Nc1cccc2c1C(=O)N(C1CCC(=O)NC1=O)C2=O (stereo not shown) [Pomalidomide, reference compound] , please?
20.1 µM

----------
- Test system: MV-4-11
- Test description: Cell viability (CCK-8) assay
- Format: cell-based
- Setup conditions: Homo sapiens, MV4-11, 96 h, 96 h, CCK-8
Entries and their IC50
All answers are understood in µM, so give the number only.

// below: answered molecules
[
  {
    "Molecule": "O=C1CCC(NC(=O)c2cccc(C(=O)N3CCOCC3)c2)C(=O)N1 (stereo not shown)",
    "IC50 (µM)": 5.1
  },
  {
    "Molecule": "O=C1CCC(NC(=O)c2cccc(CN3CCOCC3)c2F)C(=O)N1 (stereo not shown)",
    "IC50 (µM)": 0.93
  }
]

// lookup IC50 | system=MV-4-11 | key= O=C1CCC(NC(=O)c2cccc(CN3CCCCC3=O)c2F)C(=O)N1 (stereo not shown)
1.63

Also need Cc1nc2cccc(N)c2c(=O)n1C1CCC(=O)NC1=O (stereo not shown) [Avadomide, reference compound] , thanks.
0.85

Just for reference, paper PMC12494099 is where these values come from.
